Tested on: NCI-H522
Assay: NCI tumour cell line growth inhibition, 48 h
Activity calls are given as the source filed them. Cut-off read from the data, not from the text of the source: active = GI50 up to about 1.1 µM and inactive = higher.
We begin with a simple list: items and their reported GI50.

>  <molecule>
COc1cccc(Cc2cc(=O)c3ccc(C)nc3[nH]2)c1

>  <GI50>
13.2 µM (inactive)

$$$$
>  <molecule>
CC1=NN(c2nc(N)nc(/C(C#N)=C\c3csc([N+](=O)[O-])c3)n2)C(C)(C)C1

>  <GI50>
21.3 µM (inactive)

$$$$
>  <molecule>
O=C(/C=C/c1ccccc1)CC(=O)CCC(=O)Nc1ccc(Cl)cc1

>  <GI50>
> 100 µM (inactive)

$$$$
>  <molecule>
O=C1CC2CC(CC3(CO3)C2)C1F (stereo unspecified)

>  <GI50>
> 100 µM (inactive)

$$$$
>  <molecule>
O=C(Nc1nc2ncn(CCO)c2c(=S)[nH]1)c1ccccc1

>  <GI50>
> 100 µM (inactive)

$$$$
>  <molecule>
Nc1ccc(Cc2c(N)[nH]c(=O)[nH]c2=O)cc1

>  <GI50>
> 100 µM (inactive)

$$$$
>  <molecule>
O=c1c2cc([N+](=O)[O-])ccc2n2n1Cc1ccccc1CC2

>  <GI50>
> 100 µM (inactive)

$$$$
>  <molecule>
O=C(NCP(=O)(Oc1ccccc1)Oc1ccccc1)OCc1ccccc1

>  <GI50>
83.6 µM (inactive)

$$$$
>  <molecule>
CC(C)C(=O)/C=C/c1ccc(Cl)cc1Cl

>  <GI50>
10.8 µM (inactive)

$$$$
>  <molecule>
CNC1=Nc2ccccc2C(=O)N2CSCC12 (stereo unspecified)

>  <GI50>
23.9 µM (inactive)

$$$$
>  <molecule>
O=C1CCC2=C(CCC2)N1CCc1ccc2c(c1)OCO2

>  <GI50>
61.1 µM (inactive)

$$$$
>  <molecule>
COC(=O)CN1CCS/C1=N/C#N

>  <GI50>
> 100 µM (inactive)

$$$$
>  <molecule>
CC/N=C(/C#N)NCC

>  <GI50>
> 100 µM (inactive)

$$$$
>  <molecule>
Cn1c(=O)oc2cc(C(O)CN3CCN(Cc4ccccn4)CC3)c(Cl)cc21 (stereo unspecified)

>  <GI50>
> 100 µM (inactive)

$$$$
>  <molecule>
Nc1nc(=S)n(-c2ccc(Cl)cc2)c2nc3ccccc3cc12

>  <GI50>
45.3 µM (inactive)

$$$$
>  <molecule>
CC1=CC[C@@H](C(C)(C)O)C[C@@H]1O

>  <GI50>
> 5000 µM (inactive)

$$$$

* * *

We begin with a simple list: items and their reported GI50.
System: SNB-19
Experiment: NCI tumour cell line growth inhibition, 48 h
Activity calls are given as the source filed them. No stated cut-off is given here; in the data, active = GI50 up to about 1.1 µM and inactive = higher.

>  <molecule>
[O-][N+]1=C2CCC/C(=N/O)C2(O)C2CCCCC21N1CCOCC1 (stereo unspecified)

>  <GI50>
> 100 µM (inactive)

$$$$
>  <molecule>
Cc1ccc2c(c1)C(=O)N1CCC[C@H]1C=N2

>  <GI50>
28.2 µM (inactive)

$$$$
>  <molecule>
COCOc1cc(OC)c(Br)cc1C/C(=N/O)C(=O)OC

>  <GI50>
> 100 µM (inactive)

$$$$
>  <molecule>
Cc1c2c(ccc3ccccc32)c[n+]2ccccc12

>  <GI50>
2.07 µM (inactive)

$$$$
>  <molecule>
COC(=O)c1nn(-c2ccccc2)c(=O)cc1N=[N+]=[N-]

>  <GI50>
> 100 µM (inactive)

$$$$
>  <molecule>
O=[N+]([O-])c1ccc2c3c1[C@H]1O[C@H]1c1cccc(c1-3)[C@@H]1O[C@H]21

>  <GI50>
3.54 µM (inactive)

$$$$
